- study-system: Adenosine receptor A1 (Bos taurus)
- Sequence (P28190 whole entry): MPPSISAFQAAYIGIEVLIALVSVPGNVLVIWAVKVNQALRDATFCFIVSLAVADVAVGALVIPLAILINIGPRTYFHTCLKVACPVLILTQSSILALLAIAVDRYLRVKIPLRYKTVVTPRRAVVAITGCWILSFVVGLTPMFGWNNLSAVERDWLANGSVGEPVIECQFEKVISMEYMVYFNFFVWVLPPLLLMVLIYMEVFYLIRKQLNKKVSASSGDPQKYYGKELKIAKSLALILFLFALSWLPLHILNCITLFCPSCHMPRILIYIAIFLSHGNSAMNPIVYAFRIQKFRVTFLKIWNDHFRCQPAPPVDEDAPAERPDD
- assay-explanation: Affinity for Adenosine A1 receptor using [125I]APNEA in calf brain.
observable: Ki

Answered cases to consult:
O=C(Cc1ccc(NC(=O)Cc2ccc(Nc3ncnc4c3ncn4C3O[C@H](CO)[C@@H](O)[C@H]3O)cc2)cc1)NCCN=C=S (some centres undefined): 4.2 nM
CCCn1c(=O)c2nc(-c3ccc(OCC(=O)NCCNC(=O)CCCCC(C)=O)cc3)[nH]c2n(CCC)c1=O: 6.2 nM

Q) Record lookup: for Adenosine receptor A1 (Bos taurus), what Ki belongs to CCCn1c(=O)c2nc(-c3ccc(OCC(=O)NCC=O)cc3)[nH]c2n(CCC)c1=O ?
A) 3.17 nM

Q) Record lookup: for Adenosine receptor A1 (Bos taurus), what Ki belongs to CCCn1c(=O)c2[nH]c(-c3ccc(OCC(=O)NCCNC(=O)c4ccc(CBr)cc4)cc3)nc2n(CCC)c1=O ?
A) 10.1 nM

Where do the numbers come from? From ChEMBL document CHEMBL1124458.
